src = PubChem BioAssay (NCATS)

Target: Luciferin 4-monooxygenase (Photinus pyralis) (UniProt P08659)
Experiment: Primary firefly luciferase (FLuc) qHTS assay for identification of artifact compounds. (AID 1845220);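 further: plate controls were DMSO vehicle for no effect and no enzyme for full effect; nearly all actives have a fitted effect of over 60% in size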
Details: purified firefly luciferase, luminescence, 5 min; series mostly up to 54.1 µM
Description: PI: Alexander Tropsha Ph.D. UNC Eshelman School of Pharmacy University of North Carolina, Chapel Hill, North Carolina Hits from high-throughput screening (HTS) of chemical libraries are often false positives due to their interference with the assay detection technology. […] Using these curated datasets, we developed and validated several Quantitative Structure-Interference Relationship (QSIR) models to predict nuisance behavior. […] 6; Detection; Luminescence, ViewLux microplate reader. […]
Active and inactive are the calls of the source. The call rests on the fitted dose curve; in most records, active means well fitted inhibition curve with a large enough effect; inconclusive means small, poorly fitted or top-dose-only effect; inactive means flat fitted curve, though single readings scatter.
PROPERTY_LABEL: activity change, negative = inhibition

MOLECULE: C[C@@H]1O[C@@H](O[C@H]2[C@H](OC(=O)[C@]34CCC(C)(C)C[C@H]3C3=CCC5[C@@]6(C)C[C@H](O)[C@H](O[C@@H]7O[C@H](CO)[C@@H](O)[C@H](O)[C@H]7O)[C@@](C)(CO)C6[C@H](O)C[C@@]5(C)[C@]3(C)C[C@H]4O)OC[C@H](O)[C@@H]2O)[C@H](O)[C@H](O)[C@H]1O[C@@H]1OC[C@@H](O)[C@H](O[C@H]2OC[C@](O)(CO)[C@H]2O)[C@H]1O (stereo partly drawn)
activity change, negative = inhibition: 2.14% [at 11.6 µM] (inactive)

# ---- query molecule ----
May I ask what activity change, negative = inhibition has been recorded for C[C@@H]1O[C@@H](O[C@@H]2[C@@H](O)[C@H](O[C@H]3[C@H](O[C@H]4CC[C@@]5(C)C(CC[C@]6(C)C5CC=C5[C@@H]7CC(C)(C)CC[C@]7(C(=O)O[C@@H]7O[C@H](CO)[C@@H](O)[C@H](O)[C@H]7O[C@@H]7O[C@@H](C)[C@H](O[C@@H]8O[C@@H](C)[C@H](O)[C@@H](O)[C@H]8O)[C@@H](O)[C@H]7O)CC[C@]56C)[C@@]4(C)CO)O[C@H](C(=O)O)[C@@H](O)[C@@H]3O)O[C@H](CO)[C@H]2O)[C@H](O)[C@H](O)[C@H]1O (stereo partly drawn) ? -1.57% [at 11.6 µM] (inactive)

###

tested on: Nanoluciferase (engineered Oplophorus gracilirostris luciferase); test: Primary Nanoluciferase (NLuc) qHTS assay for identification of artifact compounds. (AID 1845222); conditions: NLuc-conditioned medium, Nano-Glo luminescence, 5 min; series mostly up to 54.1 µM;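 further: NLuc secreted into diluted conditioned medium of S16 cells; 0% = DMSO and -100% = no enzyme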
Active and inactive are the calls of the source. Calls come from the whole dose curve; as a rule, active = well fitted inhibition curve with a large enough effect; inconclusive = small, poorly fitted or top-dose-only effect; inactive = flat fitted curve, though single readings scatter.
PROPERTY_LABEL: activity, negative = inhibition

MOLECULE: O=C(NOCC(O)CO)c1ccc(F)c(F)c1Nc1ccc(I)cc1F (centres undefined)
activity, negative = inhibition: inactive

MOLECULE: COc1ccc([C@@H]2OC[C@H]3[C@@H]2CO[C@@H]3c2ccc(OC3OC(CO)C(O)C(O)C3O)c(OC)c2)cc1OC (some centres undefined)
activity, negative = inhibition: inactive

MOLECULE: CCN(CC)CCN(Cc1ccc(-c2ccc(C(F)(F)F)cc2)cc1)C(=O)Cn1c(SCc2ccc(F)cc2)nc(=O)c2c1CCC2
activity, negative = inhibition: inactive

MOLECULE: CC(=O)OC1C(c2ccccc2)CCC(c2ccccc2)C1OC(C)=O (centres undefined)
activity, negative = inhibition: inactive

MOLECULE: CC(C)CC(=O)O[C@@H]1OC=C(CO[C@@H]2O[C@H](CO)[C@@H](O)[C@H](O)[C@H]2O)[C@H]2[C@@H]3O[C@H]3[C@@](O)(CO)[C@@H]12
activity, negative = inhibition: inactive

I'm hoping you can list activity, negative = inhibition for every molecule here, please.
1. O=C(c1cc2c(cc1F)OC(c1ccc(F)cc1)(c1ccc(Cl)cc1Cl)O2)N1CCOCC1 (centres undefined)
2. C[C@@H]1O[C@@H](O[C@H]2[C@H](O)[C@@H](C(=O)O)O[C@@H](O[C@H]3CC[C@@]4(C)C(CC[C@]5(C)C4CC=C4C6CC(C)(C)CC[C@]6(C(=O)O)CC[C@]45C)C3(C)C)[C@@H]2O[C@@H]2OC[C@@H](O)[C@H](O)[C@H]2O)[C@H](O)[C@H](O)[C@H]1O (some centres undefined)
3. C[C@H]1Oc2cc(cnc2N)-c2c(nn(C)c2C#N)CN(C)C(=O)c2ccc(F)cc21
4. C[C@@H]1O[C@@H](O[C@H]2[C@H](O[C@H]3[C@H](O[C@H]4CC[C@@]5(C)C(CC[C@]6(C)C5CC=C5[C@@H]7CC(C)(C)C[C@@H](O)[C@]7(C)CC[C@]56C)[C@@]4(C)CO)O[C@H](C(=O)O)[C@@H](O)[C@@H]3O)OC[C@H](O)[C@@H]2O)[C@H](O)[C@H](O)[C@H]1O (some centres undefined)
5. C[C@@H]1O[C@@H](O[C@H]2[C@H](O)[C@@H](O[C@@H]3O[C@H](CO)[C@@H](O)[C@H](O[C@@H]4O[C@H](CO)[C@@H](O)[C@H](O)[C@H]4O)[C@H]3O)[C@H](O[C@H]3CC[C@@]4(C)C(=CC[C@@H]5C4CC[C@@]4(C)C5C[C@@H]5OC6(CC[C@@](C)(CO[C@@H]7O[C@H](CO)[C@@H](O)[C@H](O)[C@H]7O)O6)[C@@H](C)[C@@H]54)C3)O[C@@H]2CO)[C@H](O)[C@H](O)[C@H]1OC1OC(CO)C(O)C(O)C1O (some centres undefined)

inactive
0.398% [at 11.6 µM] (inactive)
inactive
-0.768% [at 11.6 µM] (inactive)
1.98% [at 11.6 µM] (inactive)

###

tested on: KB-3-1; test: Cytotoxic Profiling of Annotated Libraries Using Quantitative High-Throughput Screening (AID 1296008); details: Five cell lines viability, CellTiter-Glo ATP luminescence, 48-72 h; further: nearly all actives have a fitted effect of over 60% in size; further: potency means the concentration at half of the fitted maximal effect
Inconclusive results are not listed. Activity calls are given as the source filed them. The call rests on the fitted dose curve; in most records, active means well fitted inhibition curve with a large enough effect; inconclusive means small, poorly fitted or top-dose-only effect; inactive means flat fitted curve, though single readings scatter.
PROPERTY_LABEL: Potency

May I ask what Potency has been recorded for `C[C@@H]1C[C@H]2O[C@@H]2/C=C\C=C\C(=O)Cc2c(Cl)c(O)cc(O)c2C(=O)O1` ? 1.1 µM (active)

###

molecular target: Cytochrome P450 2C19 (Homo sapiens) (UniProt P33261); assay: qHTS for inhibitors of CYP2C19 against the NCATS DSHEA and TCM libraries (AID 1919974); settings: CYP2C19 enzyme inhibition, luminescence qHTS; series mostly up to 18.8 µM;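 further: luminescence from luciferin released by CYP2C19 oxidation of a pro-luciferin substrate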
Sequence (P33261 whole entry, looked up): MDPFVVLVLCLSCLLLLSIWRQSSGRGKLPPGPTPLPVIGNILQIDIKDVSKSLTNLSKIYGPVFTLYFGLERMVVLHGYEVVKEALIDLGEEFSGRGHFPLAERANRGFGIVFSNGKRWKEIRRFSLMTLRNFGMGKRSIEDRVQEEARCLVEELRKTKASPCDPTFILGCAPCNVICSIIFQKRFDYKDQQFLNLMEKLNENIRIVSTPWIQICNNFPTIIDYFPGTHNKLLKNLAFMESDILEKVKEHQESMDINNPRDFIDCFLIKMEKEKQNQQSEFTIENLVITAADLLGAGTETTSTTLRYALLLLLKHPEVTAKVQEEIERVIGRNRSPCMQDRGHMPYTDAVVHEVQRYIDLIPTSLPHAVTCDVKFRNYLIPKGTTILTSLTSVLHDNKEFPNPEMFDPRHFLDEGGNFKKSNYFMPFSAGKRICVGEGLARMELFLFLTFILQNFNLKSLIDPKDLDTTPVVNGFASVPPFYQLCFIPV
Results filed as inconclusive are left out. The source made the active and inactive calls. Calls follow the shape of the dose curve; as a rule, active = well fitted inhibition curve with a large enough effect; inconclusive = small, poorly fitted or top-dose-only effect; inactive = no such curve, though single readings can be large or run the other way.
Reply using exactly one outcome from yes (active), no (inactive)

MOLECULE: CC1CC[C@]2(C(=O)O)CC[C@]3(C(=O)O)C(=CCC4[C@@]5(C)CC[C@H](OC6OC(C)C(O)C(OC7OC(CO)C(O)C(O)C7O)C6O)C(C)(C)C5CC[C@]43C)C2C1C (stereo not given in full)
DISCRETE_LABEL: no
//
MOLECULE: OC[C@H]1O[C@@H](OC[C@H]2O[C@@H](OC/C=C/c3ccccc3)[C@H](O)[C@@H](O)[C@@H]2O)[C@@H](O)[C@@H]1O
DISCRETE_LABEL: no
//
MOLECULE: C[C@@]12CC[C@@H]3[C@@](CC[C@H]4[C@@]3(C)CCC[C@@]4(C)C(=O)O)(CC1=O)C2
DISCRETE_LABEL: yes
//
MOLECULE: CC(C)=CCC[C@](C)(O[C@@H]1O[C@H](CO[C@@H]2O[C@H](CO)[C@@H](O)[C@H](O)[C@H]2O)[C@@H](O)[C@H](O)[C@H]1O)C1CC[C@]2(C)[C@@H]1[C@H](O)CC1[C@@]3(C)CC[C@H](O[C@@H]4O[C@H](CO)[C@@H](O)[C@H](O)[C@H]4O[C@@H]4O[C@H](CO)[C@@H](O)[C@H](O)[C@H]4O)C(C)(C)[C@@H]3CC[C@]12C (stereo not given in full)
DISCRETE_LABEL: yes

Can you look up the reported call for CC(C)=CCC(O)/C(C)=C/CO[C@@H]1O[C@H](CO)[C@@H](O)[C@H](O)[C@H]1O (stereo not given in full) for me? yes

###

Field: max response. Provide a value for each of the compounds that follow.
test system: HEK293; test: Cytotoxic Profiling of Annotated Libraries Using Quantitative High-Throughput Screening (AID 1296008); conditions: Five cell lines viability, CellTiter-Glo ATP luminescence, 48-72 h; stronger effect = lower value; further: nearly all actives have a fitted effect of over 60% in size; on max response: on the % scale 0 is the no-effect control and ±100 the full control effect
Inconclusive results are not listed. Calls of active or inactive are those of the source. The call rests on the fitted dose curve; in most records, active means well fitted inhibition curve with a large enough effect; inconclusive means small, poorly fitted or top-dose-only effect; inactive means flat fitted curve, though single readings scatter.

I'm hoping you can list max response for every compound here, please.
1. C=C1CCC[C@]2(C)CC[C@@H](C(=C)C(=O)O)[C@H](O)[C@@H]12
2. C[C@]1(CO)CCC[C@]2(C)C3=C(CCC12)COC3 (stereo partly drawn)
3. C=C1C(=O)OC2CC(C)=C(C(C)CCCO)C(O)C12 (stereo not drawn)
4. CC1COC2(OC3CC4C5CC(O[C@@H]6O[C@H](C)[C@@H](O[C@@H]7O[C@@H](C)[C@H](O)[C@@H](O)[C@H]7O)[C@H](O)[C@H]6O)C6CC(O)CCC6(C)C5CCC4(C)C3C2C)C(O)C1 (stereo partly drawn)
5. COC(=O)N(C)c1c(N)nc(-c2nn(Cc3ccccc3F)c3ncccc23)nc1N
6. OC/C=C/C=C/[C@H]1Cc2cc(O)cc(O)c2O1
7. C=C1[C@H](OC(C)=O)[C@H]2[C@@H](OC(C)=O)[C@](C)(OC(C)=O)C[C@]2(OC(C)=O)C(=O)[C@H](C)/C=C/C(C)(C)C(=O)[C@H](OC(=O)C(C)C)[C@H]1OC(C)=O
8. COC(=O)c1c(C)cc(OC(=O)c2c(C)cc(OC)cc2OC)cc1O[C@@H]1O[C@H](CO)[C@@H](O)[C@H](O)[C@H]1O

["-1.48% (inactive)", "-9.57% (inactive)", "-3.2% (inactive)", "3.68% (inactive)", "-0.877% (inactive)", "-7.6% (inactive)", "1.22% (inactive)", "-0.971% (inactive)"]
